A collection of molecules and their measured IC50
target: CXCR2 (Homo sapiens (Human)); experiment: Inhibition of GROα-mediated intracellular calcium release in human neutrophils (FLIPR-3 Ca2+ mobilization assay); settings: GROα 25 nM
Sequence (P25025 whole entry): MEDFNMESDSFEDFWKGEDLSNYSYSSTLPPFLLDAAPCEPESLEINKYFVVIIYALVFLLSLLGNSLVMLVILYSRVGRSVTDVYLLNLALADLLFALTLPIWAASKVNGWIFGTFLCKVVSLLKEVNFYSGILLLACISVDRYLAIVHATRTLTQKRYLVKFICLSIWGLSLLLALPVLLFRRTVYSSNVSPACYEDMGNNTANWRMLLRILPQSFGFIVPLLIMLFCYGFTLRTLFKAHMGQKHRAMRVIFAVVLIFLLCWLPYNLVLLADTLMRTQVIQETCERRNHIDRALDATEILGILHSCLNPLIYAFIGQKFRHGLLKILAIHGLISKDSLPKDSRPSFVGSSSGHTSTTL

Examples from the recorded data:
molecule: O=C(Nc1ccc(F)cc1)c1ccc(SC2CCOC2=O)nc1 (stereo not drawn)
assayed_system: CXCR2 (Homo sapiens (Human))
IC50: > 5000 nM
//
molecule: Cc1nn(-c2ccccc2)nc1CSc1ccc(C(=O)Nc2ccc(F)cc2)cn1
assayed_system: CXCR2 (Homo sapiens (Human))
IC50: > 5000 nM

IC50 in this record for `COc1ccc(B(O)O)c(CSc2ccc(C(=O)Nc3ccc(F)cc3)cn2)c1` : 79 nM
